# TARGET UNDER TEST: YES1 (UniProt P07947)
# Sequence (P07947 whole entry, looked up): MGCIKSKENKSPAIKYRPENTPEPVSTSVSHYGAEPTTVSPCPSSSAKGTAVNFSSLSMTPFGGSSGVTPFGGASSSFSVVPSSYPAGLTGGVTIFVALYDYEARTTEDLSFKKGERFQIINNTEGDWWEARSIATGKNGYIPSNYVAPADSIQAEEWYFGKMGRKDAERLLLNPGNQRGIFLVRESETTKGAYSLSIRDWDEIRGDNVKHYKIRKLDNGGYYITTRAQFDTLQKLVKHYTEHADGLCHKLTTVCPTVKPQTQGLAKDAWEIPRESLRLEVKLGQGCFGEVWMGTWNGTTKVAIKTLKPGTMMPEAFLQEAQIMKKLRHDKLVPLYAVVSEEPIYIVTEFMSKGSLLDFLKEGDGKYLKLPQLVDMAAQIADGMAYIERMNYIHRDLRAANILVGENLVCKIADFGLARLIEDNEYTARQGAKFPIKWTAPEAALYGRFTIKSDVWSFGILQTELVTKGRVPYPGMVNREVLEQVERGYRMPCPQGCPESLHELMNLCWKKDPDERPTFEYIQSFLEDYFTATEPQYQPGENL
# ASSAY METHOD TEXT: log2 fold change, soluble protein after heating vs DMSO (PISA); higher = thermal stabilisation; K562 cells, 10 uM, 30 min; active = over 0.2 and 3.5 SD of the protein, either way, in both replicates (recomputed)
Of roughly 7,900 targets only a part is listed; those with a hit were picked by preference. About 0.6% of all pairs of compound and target were hits.
Pick one and only one: yes (active), no (inactive)

Answered examples (10):
[
  {
    "MOLECULAR STRING": "NC1(c2ccc(-c3nc4ccn5c(=O)[nH]nc5c4cc3-c3ccccc3)cc2)CCC1",
    "TARGET UNDER TEST": "YES1 (UniProt P07947)",
    "ASSIGNED CATEGORY": "no"
  },
  {
    "MOLECULAR STRING": "NC1(Cc2ccc(Cl)cc2)CCN(c2ncnc3[nH]ccc23)CC1",
    "TARGET UNDER TEST": "YES1 (UniProt P07947)",
    "ASSIGNED CATEGORY": "no"
  },
  {
    "MOLECULAR STRING": "COc1cc(Nc2ncc3c(n2)-c2ccc(Cl)cc2C(c2c(F)cccc2OC)=NC3)ccc1C(=O)O",
    "TARGET UNDER TEST": "YES1 (UniProt P07947)",
    "ASSIGNED CATEGORY": "no"
  },
  {
    "MOLECULAR STRING": "CCCS(=O)(=O)Nc1ccc(F)c(C(=O)c2c[nH]c3ncc(-c4ccc(Cl)cc4)cc23)c1F",
    "TARGET UNDER TEST": "YES1 (UniProt P07947)",
    "ASSIGNED CATEGORY": "no"
  },
  {
    "MOLECULAR STRING": "CC(C)(O)CC(=O)NCCn1ccc2ncnc(Nc3ccc(Oc4cccc(C(F)(F)F)c4)c(Cl)c3)c21",
    "TARGET UNDER TEST": "YES1 (UniProt P07947)",
    "ASSIGNED CATEGORY": "no"
  },
  {
    "MOLECULAR STRING": "CO[C@H]1C[C@@H]2CC[C@@H](C)[C@@](O)(O2)C(=O)C(=O)N2CCCC[C@H]2C(=O)O[C@H]([C@H](C)C[C@@H]2CC[C@H](n3cnnn3)[C@H](OC)C2)CC(=O)[C@H](C)/C=C(\\C)[C@@H](O)[C@@H](OC)C(=O)[C@H](C)C[C@H](C)/C=C/C=C/C=C/1C",
    "TARGET UNDER TEST": "YES1 (UniProt P07947)",
    "ASSIGNED CATEGORY": "no"
  },
  {
    "MOLECULAR STRING": "CS(=O)(=O)N1CCN(Cc2cc3nc(-c4cccc5[nH]ncc45)nc(N4CCOCC4)c3s2)CC1",
    "TARGET UNDER TEST": "YES1 (UniProt P07947)",
    "ASSIGNED CATEGORY": "no"
  },
  {
    "MOLECULAR STRING": "Cc1cc(Nc2cc(N3CCN(C)CC3)nc(Sc3ccc(NC(=O)C4CC4)cc3)n2)n[nH]1",
    "TARGET UNDER TEST": "YES1 (UniProt P07947)",
    "ASSIGNED CATEGORY": "no"
  },
  {
    "MOLECULAR STRING": "Cc1ccc(-n2nc(C(C)(C)C)cc2NC(=O)Nc2ccc(OCCN3CCOCC3)c3ccccc23)cc1",
    "TARGET UNDER TEST": "YES1 (UniProt P07947)",
    "ASSIGNED CATEGORY": "no"
  },
  {
    "MOLECULAR STRING": "Cc1cn(-c2cc(NC(=O)c3ccc(C)c(Nc4nccc(-c5cccnc5)n4)c3)cc(C(F)(F)F)c2)cn1",
    "TARGET UNDER TEST": "YES1 (UniProt P07947)",
    "ASSIGNED CATEGORY": "no"
  }
]

query: Please indicate how the test categorized "CN1CCN(CCOc2cc(OC3CCOCC3)c3c(Nc4c(Cl)ccc5c4OCO5)ncnc3c2)CC1" .
result: yes
